From: patent US8039505B2

test: Pharmacokinetics in male Swiss Albino mouse, intravenous and oral (LC-MS/MS of plasma)
Assay type: in vivo
assay context: male, Swiss Albino, mouse, plasma, iv, 3 mg/kg, mouse, intravenous bolus 3 mg/kg, 8 h, N = 3; read-out: Mean plasma concentration
reported endpoint: concentration at 8 h (ng/mL)
Numeric only. Scale: ng/mL

Briefly, concentration at 8 h measured for C(=NNc1cccc2cccnc12)c1c[nH]c2ccccc12 : 8.95

* * *

test: Pharmacokinetics in male Swiss Albino mouse, intravenous and oral (LC-MS/MS of plasma)
Format: in vivo
assay context: male, Swiss Albino, mouse, plasma, iv, 3 mg/kg, mouse, intravenous bolus 3 mg/kg, 1 h, individual mice; LLOQ 1.04 ng/mL; read-out: Individual plasma concentration
reported endpoint: concentration at 1 h (ng/mL)
Numeric only. Scale: ng/mL

Briefly, concentration at 1 h measured for C(=NNc1cccc2cccnc12)c1c[nH]c2ccccc12 [Compound C3] : 116
